target: human MAGL (Homo sapiens, UniProt Q99685); construct: expressed in transfected cells; host or cells: HEK293T (transient transfection; membrane fraction); test: MAGL activity assay (AA-HNA fluorogenic substrate); assay type: biochemical; conditions: 100 µM, AA-HNA substrate assay, Supplementary Table 1; read-out: MAGL Inhibition (%)
Sequence (Q99685 whole entry): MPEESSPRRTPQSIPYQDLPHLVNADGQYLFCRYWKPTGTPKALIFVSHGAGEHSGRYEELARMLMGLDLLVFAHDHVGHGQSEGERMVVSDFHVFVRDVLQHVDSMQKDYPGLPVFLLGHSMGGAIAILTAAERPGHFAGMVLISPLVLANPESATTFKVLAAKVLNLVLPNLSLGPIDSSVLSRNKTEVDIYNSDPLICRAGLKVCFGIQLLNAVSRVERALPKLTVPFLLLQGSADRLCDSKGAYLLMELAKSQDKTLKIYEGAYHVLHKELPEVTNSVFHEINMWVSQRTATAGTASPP
assayEndpoint: activity at 100 µM (%)
Report the figure in % without appending any unit label.

INSERT INTO results (molecule, unitdescriptor, reportedresult) VALUES
  ('COc1ccc(CCC(=O)c2c(O)cc(O[C@@H]3O[C@H](CO)[C@@H](O)[C@H](O)[C@H]3O[C@@H]3O[C@@H](C)[C@H](O)[C@@H](O)[C@H]3O)cc2O)cc1O [compound 56, Neohesperidin dihydrochalcone]', '%', 87.4),
  ('C[C@H]1[C@@H](O)O[C@@H]2O[C@@]3(C)CC[C@H]4[C@H](C)CC[C@@H]1[C@@]24OO3 [compound 26, Dihydroartemisinin]', '%', 92.5),
  ('C[C@@H]1O[C@@H](OC[C@H]2O[C@@H](Oc3c(-c4ccc(O)c(O)c4)oc4cc(O)cc(O)c4c3=O)[C@H](O)[C@@H](O)[C@@H]2O)[C@H](O)[C@H](O)[C@H]1O', '%', 75.9),
  ('O=C(O)[C@H]1O[C@@H](Oc2cc3oc(-c4ccccc4)cc(=O)c3c(O)c2O)[C@H](O)[C@@H](O)[C@@H]1O', '%', 80.3),
  ('C[C@H]1COC2=C1C(=O)C(=O)c1c2ccc2c1CCCC2(C)C', '%', 11.2),
  ('CN(C)Cc1c[nH]c2ccccc12', '%', 97.3);

Item: O=c1c2ccccc2nc2n1CCc1c-2[nH]c2ccccc12 Test system: human MAGL (Homo sapiens, UniProt Q99685) Read-out: activity at 100 µM Value: ? 99.2

Item: CC1(C)CC[C@]2(C(=O)O)CC[C@]3(C)C(=CC[C@@H]4[C@@]5(C)CC[C@H](O)C(C)(C)[C@@H]5CC[C@]43C)[C@@H]2C1 Test system: human MAGL (Homo sapiens, UniProt Q99685) Read-out: activity at 100 µM Value: ? 130

Item: O=[N+]([O-])c1ncc[nH]1 Test system: human MAGL (Homo sapiens, UniProt Q99685) Read-out: activity at 100 µM Value: ? 89.9

Item: COc1ccc2ccc(=O)oc2c1CC=C(C)C Test system: human MAGL (Homo sapiens, UniProt Q99685) Read-out: activity at 100 µM Value: ? 94.5

Item: CCn1cc(C(=O)O)c(=O)c2ccc(C)nc21 Test system: human MAGL (Homo sapiens, UniProt Q99685) Read-out: activity at 100 µM Value: ? 143

Item: COc1ccc(-c2oc3c(CC=C(C)C)c(O[C@@H]4O[C@H](CO)[C@@H](O)[C@H](O)[C@H]4O)cc(O)c3c(=O)c2O[C@@H]2O[C@@H](C)[C@H](O)[C@@H](O)[C@H]2O)cc1 Test system: human MAGL (Homo sapiens, UniProt Q99685) Read-out: activity at 100 µM Value: ? 84

Item: C[C@H]1[C@H](OC(=O)CCC(=O)O)O[C@@H]2O[C@@]3(C)CC[C@H]4[C@H](C)CC[C@@H]1[C@@]24OO3 [compound 11, Artesunate] Test system: human MAGL (Homo sapiens, UniProt Q99685) Read-out: activity at 100 µM Value: ? 106

* * *

Target: human ABHD6 (Homo sapiens, UniProt Q9BV23)
Construct: expressed in transfected cells; host or cells: HEK293T (transient transfection; membrane fraction)
Sequence (Q9BV23 1-337): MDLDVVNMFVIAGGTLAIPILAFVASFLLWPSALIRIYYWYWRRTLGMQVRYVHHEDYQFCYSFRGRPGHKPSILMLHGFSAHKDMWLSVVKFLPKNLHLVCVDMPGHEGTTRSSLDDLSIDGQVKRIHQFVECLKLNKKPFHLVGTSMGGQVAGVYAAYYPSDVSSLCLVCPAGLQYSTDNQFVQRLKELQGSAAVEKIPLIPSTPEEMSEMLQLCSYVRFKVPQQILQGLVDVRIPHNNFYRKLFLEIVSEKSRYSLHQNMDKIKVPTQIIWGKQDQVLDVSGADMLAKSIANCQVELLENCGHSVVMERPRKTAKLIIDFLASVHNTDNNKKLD
Assay: ABHD6 activity assay (AA-HNA fluorogenic substrate)
Format: biochemical
Details: 100 µM, AA-HNA substrate assay, Supplementary Table 2; read-out: ABHD6 Inhibition (%)
Structures can show the parent of a compound that is named as a salt.
// activity lookup, one value per entry
Report the figure in % without appending any unit label.

Use the examples below as a reference point.
INSERT INTO measurements (molecule, reportedresult) VALUES
  ('O=C1CCC[C@@H]2[C@H]3CCCN4CCC[C@@H](CN12)[C@@H]34 [compound 49, (+)-Matrine]', 98.3),
  ('CC(=O)c1c(O)c(C)c(O)c2c1OC1=CC(=O)C(C(C)=O)C(=O)C12C (centres unmarked)', 97.9),
  ('Cl.N=c1ccn2c(n1)O[C@H]1[C@H](O)[C@@H](CO)O[C@H]12 [compound 1, Cyclocytidine HCl]', 89.8);

Item: C[N+](C)(C)CC(O)CC(=O)O (racemic) [compound 27, DL-Carnitine HCl] Test system: human ABHD6 (Homo sapiens, UniProt Q9BV23) Read-out: activity Value: ? 88.9

Item: C=C1C(=O)O[C@H]2[C@H]1CC/C(C)=C/CC[C@@]1(C)O[C@@H]21 [compound 65, (-)-Parthenolide] Test system: human ABHD6 (Homo sapiens, UniProt Q9BV23) Read-out: activity Value: ? 105

Item: COc1ccc([C@@H]2CC(=O)c3c(O)cc(O[C@@H]4O[C@H](CO)[C@@H](O)[C@H](O)[C@H]4O[C@@H]4O[C@@H](C)[C@H](O)[C@@H](O)[C@H]4O)cc3O2)cc1O Test system: human ABHD6 (Homo sapiens, UniProt Q9BV23) Read-out: activity Value: ? 98.7

* * *

// activity lookup, one value per entry
Biological target: human ABHD12 (Homo sapiens)
Construct: expressed in transfected cells; host or cells: HEK293T (transient transfection; membrane fraction)
Sequence (Q8N2K0 1-398): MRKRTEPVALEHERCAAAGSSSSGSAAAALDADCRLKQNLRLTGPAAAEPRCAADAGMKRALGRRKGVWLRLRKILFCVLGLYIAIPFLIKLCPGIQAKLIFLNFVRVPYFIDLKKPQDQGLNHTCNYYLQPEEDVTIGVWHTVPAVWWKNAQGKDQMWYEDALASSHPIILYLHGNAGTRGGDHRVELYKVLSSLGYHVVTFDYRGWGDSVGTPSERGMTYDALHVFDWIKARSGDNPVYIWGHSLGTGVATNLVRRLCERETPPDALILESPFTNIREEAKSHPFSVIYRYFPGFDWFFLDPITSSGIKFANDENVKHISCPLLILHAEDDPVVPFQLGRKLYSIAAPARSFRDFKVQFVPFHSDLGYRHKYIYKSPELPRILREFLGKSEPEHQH
Assay: ABHD12 activity by competitive ABPP with FP-TAMRA
Type: biochemical
Conditions: 100 µM compound; competitive ABPP with probe FP-TAMRA (250 nM); read-out: ABHD12 Inhibition (%)
Report the figure in % without appending any unit label.

Use the examples below as a reference point.
INSERT INTO assay_data (smilesrepresentation, reportedresult) VALUES
  ('OCc1c[nH]c2ccccc12', 80.9),
  ('COc1ccc([C@@H]2CC(=O)c3c(O)cc(O[C@@H]4O[C@H](CO)[C@@H](O)[C@H](O)[C@H]4O[C@@H]4O[C@@H](C)[C@H](O)[C@@H](O)[C@H]4O)cc3O2)cc1O', 75.6);

Now look at this one.
Fill in the blank: the reported activity of COc1ccc([C@@H]2CC(=O)c3c(O)cc(O[C@@H]4O[C@H](CO[C@@H]5O[C@@H](C)[C@H](O)[C@@H](O)[C@H]5O)[C@@H](O)[C@H](O)[C@H]4O)cc3O2)cc1O is ____. 76.6

* * *

target: human MAGL (Homo sapiens, UniProt Q99685); construct: expressed in transfected cells; host or cells: HEK293T (transient transfection; membrane fraction); assay: MAGL activity assay (AA-HNA fluorogenic substrate); assay type: biochemical; settings: 100 µM, AA-HNA substrate assay, Supplementary Table 1; read-out: MAGL Inhibition (%)
// activity at 100 µM lookup, one value per entry
Report the figure in % without appending any unit label.

INSERT INTO measurements (compound, reportedresult) VALUES
  ('O=C1CCC[C@@H]2[C@H]3CCC[N+]4([O-])CCC[C@@H](CN12)[C@@H]34 (some centres unmarked) [compound 63, Oxymatrine]', 99.9),
  ('CC1(C)[C@@H](O[C@H]2O[C@H](C(=O)O)[C@@H](O)[C@H](O)[C@H]2O[C@@H]2O[C@H](C(=O)O)[C@@H](O)[C@H](O)[C@H]2O)CC[C@]2(C)[C@H]3C(=O)C=C4[C@@H]5C[C@@](C)(C(=O)O)CC[C@]5(C)CC[C@@]4(C)[C@]3(C)CC[C@@H]12 [compound 33, Glycyrrhizin]', 99.5),
  ('C[C@H]1[C@H](C)CC[C@]2(C(=O)O)CC[C@]3(C)C(=CC[C@@H]4[C@@]5(C)C[C@@H](O)[C@H](O)[C@@](C)(CO)[C@@H]5CC[C@]43C)[C@H]12 [compound 12, Asiatic acid]', 86),
  ('O=C(CCc1ccc(O)cc1)c1c(O)cc(O)cc1O[C@@H]1O[C@H](CO)[C@@H](O)[C@H](O)[C@H]1O [compound 67, Phlorizin]', 75.9),
  ('Cc1cc(=O)oc2cc(O)ccc12 [compound 5, 4-Methylumbelliferone]', 90.1),
  ('CC1(C)[C@@H](O)CC[C@]2(C)[C@H]3C(=O)C=C4[C@@H]5C[C@@](C)(C(=O)O)CC[C@]5(C)CC[C@@]4(C)[C@]3(C)CC[C@@H]12 [compound 30, Enoxolone]', 95.9);

Now look at this one.
Fill in the blank: the reported activity at 100 µM of Cc1cc(O)c2c(c1)C(=O)c1cc(O)cc(O)c1C2=O [compound 28, Emodin] is ____. 63.2
